- system: mouse GLP-1 receptor (mouse) (UniProt O35659)
- Sequence (O35659 22-463): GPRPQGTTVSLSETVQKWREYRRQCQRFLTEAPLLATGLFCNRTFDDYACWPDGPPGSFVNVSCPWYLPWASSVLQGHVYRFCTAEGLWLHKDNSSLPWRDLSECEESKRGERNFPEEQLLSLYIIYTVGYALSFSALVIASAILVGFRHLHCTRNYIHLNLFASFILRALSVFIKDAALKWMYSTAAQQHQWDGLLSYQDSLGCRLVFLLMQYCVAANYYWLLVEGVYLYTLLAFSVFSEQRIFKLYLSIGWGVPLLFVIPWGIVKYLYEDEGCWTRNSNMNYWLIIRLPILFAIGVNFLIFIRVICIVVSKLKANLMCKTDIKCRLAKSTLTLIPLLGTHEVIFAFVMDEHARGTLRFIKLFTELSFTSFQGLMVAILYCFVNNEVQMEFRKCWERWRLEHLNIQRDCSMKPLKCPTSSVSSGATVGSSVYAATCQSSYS
- method notes: cell-based or functional assay
property name: cAMP EC50 (nM)
One number for each entry, in nM.

A selection of reference data follows.
{"binder": "IP321 (Fc fusion) YSEGTFISDYSIAMDKIHQQDFVNWLLAGGAAAGGSGSTASSGSGSATGGGGAATHTCPPC", "unit of measurement": "nM", "cAMP EC50": 330}
{"binder": "IP247 (Fc fusion) YSEGTFTSDYSKLLEKIHQQLFIEWLVKGPAAAGGSGSTASSGSGSATGGGGAATHTCPPCPAPEF", "unit of measurement": "nM", "cAMP EC50": 280}
{"binder": "IP226 (Fc fusion) YSEGTFTSDVSKLLERQAIDEFIAWLLKGGAAAGGSGSTASSGSGSATGGGGAATHTCPPCPAPEF", "unit of measurement": "nM", "cAMP EC50": 1}

Proceed to the following item.
Short answer for IP329 (Fc fusion) YSEGTFTSDYSKLLERQAIDEFIAELLKGGGGGGGSGGGGSGGGGSGGGGSGGGGSGGGGSA : cAMP EC50 was 9
